# SYSTEM_UNDER_TEST: MRP1 (Multidrug resistance-associated protein 1) (Homo sapiens, UniProt P33527)
# Sequence (P33527 whole entry): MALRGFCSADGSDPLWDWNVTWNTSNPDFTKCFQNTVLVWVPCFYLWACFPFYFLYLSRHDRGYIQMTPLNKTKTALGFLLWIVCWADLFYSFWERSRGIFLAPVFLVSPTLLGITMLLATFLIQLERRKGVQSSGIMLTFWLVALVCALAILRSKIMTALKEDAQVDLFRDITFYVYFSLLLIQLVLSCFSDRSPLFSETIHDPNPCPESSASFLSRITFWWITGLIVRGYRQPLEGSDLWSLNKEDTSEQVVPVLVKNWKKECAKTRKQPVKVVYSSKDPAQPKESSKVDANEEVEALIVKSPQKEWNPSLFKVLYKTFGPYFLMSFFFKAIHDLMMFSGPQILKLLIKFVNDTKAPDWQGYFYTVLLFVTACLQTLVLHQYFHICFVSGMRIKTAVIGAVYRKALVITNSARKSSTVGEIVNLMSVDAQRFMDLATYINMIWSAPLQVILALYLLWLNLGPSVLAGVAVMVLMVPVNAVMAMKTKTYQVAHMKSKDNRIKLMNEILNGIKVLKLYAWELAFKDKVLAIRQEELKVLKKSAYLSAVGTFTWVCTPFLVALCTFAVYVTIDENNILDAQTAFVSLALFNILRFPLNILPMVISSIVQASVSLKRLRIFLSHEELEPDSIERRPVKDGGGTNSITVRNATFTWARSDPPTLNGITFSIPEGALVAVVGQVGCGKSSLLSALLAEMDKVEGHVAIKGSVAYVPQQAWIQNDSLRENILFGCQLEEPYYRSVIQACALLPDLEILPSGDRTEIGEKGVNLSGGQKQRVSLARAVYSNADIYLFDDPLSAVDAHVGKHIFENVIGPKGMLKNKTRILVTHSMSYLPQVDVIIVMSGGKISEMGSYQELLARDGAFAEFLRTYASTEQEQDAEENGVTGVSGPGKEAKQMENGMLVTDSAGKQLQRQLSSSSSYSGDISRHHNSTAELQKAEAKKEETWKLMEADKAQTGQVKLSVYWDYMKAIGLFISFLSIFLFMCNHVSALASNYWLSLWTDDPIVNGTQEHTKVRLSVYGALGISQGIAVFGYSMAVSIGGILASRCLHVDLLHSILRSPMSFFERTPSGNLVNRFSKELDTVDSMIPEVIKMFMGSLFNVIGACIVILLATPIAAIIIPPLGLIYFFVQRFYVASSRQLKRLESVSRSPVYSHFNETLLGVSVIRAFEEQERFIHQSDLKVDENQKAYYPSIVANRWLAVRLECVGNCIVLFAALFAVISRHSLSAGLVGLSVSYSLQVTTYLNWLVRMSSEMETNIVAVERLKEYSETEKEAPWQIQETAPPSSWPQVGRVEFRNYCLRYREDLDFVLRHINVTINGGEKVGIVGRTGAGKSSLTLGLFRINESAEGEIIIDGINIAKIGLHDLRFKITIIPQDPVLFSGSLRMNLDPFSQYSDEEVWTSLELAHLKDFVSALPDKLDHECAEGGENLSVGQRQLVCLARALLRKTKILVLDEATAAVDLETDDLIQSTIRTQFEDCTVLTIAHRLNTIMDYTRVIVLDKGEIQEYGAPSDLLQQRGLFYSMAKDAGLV
# ASSAY_EXPLANATION: Inhibition of human MRP1-mediated uptake of [3H]E2-17betaG in HEK cell membrane vesicles at 1 uM by liquid scintillation counting relative to control
# Type: cell membranes, HEK293
# CONDITION_PARAMETERS: HEK cell membrane vesicles with human MRP1, probe [3H]E2-17betaG
ATTRIBUTE_MEASURED: inhibition at 1 µM (%)
Dear colleague, please return just the value in %, with no unit written.

// lookup inhibition at 1 µM | system=MRP1 (Multidrug resistance-associated protein 1) (Homo sapiens, UniProt P33527) | key= Cc1cc(-c2ccccc2)[s+]c(-c2ccccc2)c1
0

// lookup inhibition at 1 µM | system=MRP1 (Multidrug resistance-associated protein 1) (Homo sapiens, UniProt P33527) | key= CN(C)c1ccc(-c2cc(-c3ccc(C(=O)N4CCCCC4)s3)cc(C(C)(C)C)[s+]2)cc1.F[P-](F)(F)(F)(F)F
0

// lookup inhibition at 1 µM | system=MRP1 (Multidrug resistance-associated protein 1) (Homo sapiens, UniProt P33527) | key= Cc1cc(-c2ccc(N(C)C)cc2)cc(-c2ccc(N(C)C)cc2)[se+]1
15
